Every entry's value here was drawn from the PETadex activity labels (doi:10.1093/ismejo/wraf068).

# Substrate: PET
# Test details: Proxy for plastic degradation [HPLC-UV] (mmol)
# Assay setup: pH 8; 60 °C
Attribute measured: Proxy for plastic degradation

| Protein | Attribute measured | Data value |
| --- | --- | --- |
| unnamed (protein) CTDNADTDGADGAEGSATEEGGTEESGKESGEESKADLAALAAEVEEPGPWAVGTTTVETTGARDRQLPVQVWYPVDTAVAATAEPATYDFPGIEVPAGAVTGASPAPGPFPLVIYSHGNGGLRYVSSFLAEHMASHGFVVMAPDHVGNTALDTFLGSRDETDQVAEDRPVDVQAVIDAATSGQAGLEEVSPVVDGEEVAVIGHSFGGYTALALASRQAEGDDSLDAIVGLAPASSGVDDTTLEAVGVPTLLISGTLDETTPIEEDTLRPAELVSGRPLVRADIDGAGHQSFTDVCDYLGIAESQPDLPAALVEAPQEYALEGCAPELIVIDEAQRITNRLVTAFLLETLYADDSWSPLLSPGAEEGQPLALLERED | Proxy for plastic degradation | 0 |
